Cited source: patent US20240100159A1

MEASURED TARGET: T1, hu-IL-7Rα subunit (human, UniProt P16871 21-239, limits assumed)
T1 construct: also called human interleukin-7 receptor subunit α; CD127
T1 sequence (looked up): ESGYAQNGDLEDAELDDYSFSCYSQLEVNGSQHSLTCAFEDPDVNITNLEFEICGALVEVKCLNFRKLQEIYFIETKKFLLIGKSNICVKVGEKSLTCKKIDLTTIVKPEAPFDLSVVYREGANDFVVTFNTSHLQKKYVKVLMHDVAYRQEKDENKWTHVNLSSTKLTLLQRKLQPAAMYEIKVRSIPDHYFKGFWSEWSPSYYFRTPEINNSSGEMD
TEST PROTOCOL: phage ELISA competition assay
VALUE KIND: IC50

Any idea what IC50 was measured for SLTVPWCTLDPGSMQCAWLQNR (also called IL-7Rα ligand) [SEQ ID NO 112] ?
< 10 µM
